Each item that follows carries a reported Ki.
assayed-system: UniProt:Q9Y5Y6
Sequence (Q9Y5Y6 whole entry): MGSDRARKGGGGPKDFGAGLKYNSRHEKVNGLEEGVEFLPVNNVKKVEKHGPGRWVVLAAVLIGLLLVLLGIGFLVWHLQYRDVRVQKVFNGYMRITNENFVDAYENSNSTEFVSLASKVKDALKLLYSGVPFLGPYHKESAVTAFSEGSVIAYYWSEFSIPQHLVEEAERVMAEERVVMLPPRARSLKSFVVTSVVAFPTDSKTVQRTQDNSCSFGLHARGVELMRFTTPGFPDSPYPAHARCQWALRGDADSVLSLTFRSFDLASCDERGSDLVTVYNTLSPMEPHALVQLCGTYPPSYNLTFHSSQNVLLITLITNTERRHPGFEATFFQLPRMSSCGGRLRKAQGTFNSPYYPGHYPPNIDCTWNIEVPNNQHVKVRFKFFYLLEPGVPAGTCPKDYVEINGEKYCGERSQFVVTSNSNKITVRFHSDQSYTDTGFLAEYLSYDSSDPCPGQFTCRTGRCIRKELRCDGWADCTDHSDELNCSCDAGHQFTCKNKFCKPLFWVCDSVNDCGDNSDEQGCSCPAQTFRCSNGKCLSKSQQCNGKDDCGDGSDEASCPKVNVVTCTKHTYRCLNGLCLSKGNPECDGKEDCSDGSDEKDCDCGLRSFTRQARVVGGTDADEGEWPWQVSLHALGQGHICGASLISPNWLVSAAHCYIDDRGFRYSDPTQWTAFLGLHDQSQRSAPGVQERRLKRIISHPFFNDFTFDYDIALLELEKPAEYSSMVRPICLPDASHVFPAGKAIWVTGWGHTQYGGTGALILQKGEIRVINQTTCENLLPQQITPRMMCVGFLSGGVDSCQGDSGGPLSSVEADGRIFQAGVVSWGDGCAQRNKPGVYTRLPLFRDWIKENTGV
test-name: Inhibition of human recombinant matriptase using Boc-Gln-Ala-Arg-AMC as substrate by microplate reader analysis
Numbers only; they are read as nM.

INSERT INTO results (smiles_notation, units_of_measure, assay_result) VALUES
  ('C[C@H](NC(=O)[C@H](CCCCN)NC(=O)[C@@H](N)Cc1ccc(O)cc1)C(=O)N[C@@H](CCCNC(=N)N)C(=O)c1nc2ccccc2s1', 'nM', 0.89),
  ('CC(C)C[C@H](N)C(=O)N[C@@H](CCC(N)=O)C(=O)N[C@@H](C)C(=O)N[C@@H](CCCNC(=N)N)C(=O)c1nc2ccccc2s1', 'nM', 0.15);

With those in mind, consider the next molecule.
Simply: N=C(N)NCCC[C@H](NC(=O)[C@@H]1CCCN1C(=O)[C@H](CC(N)=O)NC(=O)[C@@H](N)CCCNC(=N)N)C(=O)c1nc2ccccc2s1 , UniProt:Q9Y5Y6, Ki = 0.91

All values here come from ChEMBL document CHEMBL3351530.
